Test system: SW-620 colon
Test: NCI-60 one-dose screen, 48 h (100 = growth as untreated, 0 = no growth, -100 = all killed)
Conditions: 10 µM unless noted
About 83,000 compounds went through this panel and 20% of them were active in at least one assay; those are over-represented in the sample as a whole.
Labelling: growth reported below 30% becomes y; at or above becomes n.

Record excerpt, results attached:
compound=Cc1cc(C(C)(C)c2cc(C)c(O)c(CN(C)C)c2)cc(CN(C)C)c1O category=n
compound=Cn1[nH]cc(/C=N/C(N)=O)c1=O category=n
compound=C=CCCCCCCCCC(=O)[O][Sn]([CH2]CCC)([CH2]CCC)[CH2]CCC category=y
compound=COc1ccc2nc(-c3ccc(-n4cncc4-c4ccc(OC)c(N)c4)cc3)sc2c1 category=n
compound="CCCCCCCC/C=C/CCCCCCCC1=NC(C)(C)CN1CC(C)O (centres undefined)" category=y
compound=CCOc1cc(C(C)(C)C)ccc1C1=N[C@H](c2ccc(Cl)cc2)[C@H](c2ccc(Cl)cc2)N1C(=O)N1CCN(CC#Cc2cccc3c2CN([C@@H]2CCC(=O)NC2=O)C3=O)CC1 category=y
compound="CCC(O)C(C)(C)C (centres undefined)" category=n
compound=CSC1=Nc2c(c(C)c(-c3ccccc3)n2CCCN2CCCCC2)C2=NC(=O)C[C@H](C)N12 category=n

Shifting focus to the compound that follows.
Confirm or reject: growth of `CCC1=C(c2ccc(OC)cc2)C(C)(C)Oc2c1ccc(O)c2CN1CCCC1` lies strictly below 30%
y
